Below, each entry is listed alongside its reported selectivity ratio.
# assay.name: Selectivity index, ratio of TC50 for human NCI-H460 cells infected with HCoV-OC43 to EC50 for HCoV-OC43 infected in human NCI-H460 cells
# Assay type: toxicity, cell-based
# condition.set: read-out: Selectivity Index

| compound | selectivity ratio |
| --- | --- |
| COc1ccc2ncnc(Nc3cc(C#N)cc(C(F)(F)F)c3)c2c1 | 501 |
| CCOc1ccc2nc(N3CCN(C)CC3)nc(Nc3cc(C(F)(F)F)cc(C(F)(F)F)c3)c2c1 | 22.3 |
| CCOc1ccc2nc(NC(C)C)nc(Nc3cc(C(F)(F)F)cc(C(F)(F)F)c3)c2c1 | 6.2 |
| FC(F)(F)c1cc(Nc2ncnc3ccccc23)cc(C(F)(F)F)c1 | 12.1 |
| COc1ccc2ncnc(Nc3ccc(F)c(Cl)c3)c2c1 | 3.6 |
| CCOc1ccc2nc(NCC3CCCO3)nc(Nc3cc(C(F)(F)F)cc(C(F)(F)F)c3)c2c1 (stereo not drawn) | 1070 |
| COc1ccc2ncnc(Nc3cc(F)cc(F)c3)c2c1 | 16.3 |
| O=[N+]([O-])c1cccc(Nc2ncnc3ccc(Cl)cc23)c1 | 12.1 |
| Fc1ccc2ncnc(Nc3cc(C(F)(F)F)cc(C(F)(F)F)c3)c2c1 | 14.6 |
| CCOc1ccc2nc(NCc3cccs3)nc(Nc3cc(C(F)(F)F)cc(C(F)(F)F)c3)c2c1 | 3.6 |
| Cc1ccc2ncnc(Nc3cc(C(F)(F)F)cc(C(F)(F)F)c3)c2c1 | 80.9 |
| COC(=O)c1cc(Cl)cc(Nc2ncnc3ccc(OC)cc23)c1 | 90.4 |
| CCOc1ccc2nc(N3CCC(F)(F)CC3)nc(Nc3cc(C(F)(F)F)cc(C(F)(F)F)c3)c2c1 | 2.1 |
| CCOc1ccc2nc(NC3CC3)nc(Nc3cc(C(F)(F)F)cc(C(F)(F)F)c3)c2c1 | 15.5 |
| COC(=O)c1cc(Nc2ncnc3ccc(OC)cc23)cc(C(=O)OC)c1 | 4.3 |
| CCOc1ccc2nc(NCCN3CCOCC3)nc(Nc3cc(C(F)(F)F)cc(C(F)(F)F)c3)c2c1 | 48.1 |
| Fc1cc(Nc2ncnc3ccc(Cl)cc23)cc(C(F)(F)F)c1 | 2.08 |
| CCOc1ccc2nc(NCc3ccco3)nc(Nc3cc(C(F)(F)F)cc(C(F)(F)F)c3)c2c1 | 9 |
| FC(F)(F)c1cc(Nc2ncnc3ccc(I)cc23)cc(C(F)(F)F)c1 | 16.6 |
| COc1ccc2ncnc(Nc3ccc(F)c(C(F)(F)F)c3)c2c1 | 18.7 |
| CCCCNc1nc(Nc2cc(C(F)(F)F)cc(C(F)(F)F)c2)c2cc(OCC)ccc2n1 | 7.5 |
| COc1ccc2ncnc(Nc3cc(F)cc(C#N)c3)c2c1 | 16.3 |
| FC(F)(F)c1cc(Nc2ncnc3cccnc23)cc(C(F)(F)F)c1 | 7.5 |

---

# Test system: Human coronavirus OC43
# assay.name: Antiviral activity against HCoV-OC43 infected in human NCI-H460 cells treated for 72 hrs by CPE inhibition assay
# Format: functional, organism-based
# condition.set: Betacoronavirus 1, NCI-H460, 72 h
Lab note - cut at 500 nM for EC50: Condition met if strictly below, Condition not met if not.

| compound | class.name |
| --- | --- |
| N#Cc1ccc(Nc2ncnc3ccc(Cl)cc23)cc1 | Condition not met |
| CCOc1ccc2nc(NCCN3CCN(C)CC3)nc(Nc3cc(C(F)(F)F)cc(C(F)(F)F)c3)c2c1 | Condition not met |
| COc1ccc2ncnc(Nc3cc(C(F)(F)F)cc(C(F)(F)F)c3)c2c1 | Condition not met |
| CCOC(=O)c1c(/C=C/c2ccccc2)cc(OC)c(CC=C(C)C)c1O | Condition not met |
| COc1ccc2ncnc(N3CCN(c4cc(C(F)(F)F)cc(C(F)(F)F)c4)C(=O)C3)c2c1 | Condition not met |
| Nc1ccc2ncnc(Nc3cc(C(F)(F)F)cc(C(F)(F)F)c3)c2c1 | Condition met |
| FC(F)(F)c1cc(Nc2ncnc3ccc(C(F)(F)F)cc23)cc(C(F)(F)F)c1 | Condition met |
| CCN(CC)CCCC(C)Nc1ncnc2ccc(Cl)cc12 (stereo not given) | Condition not met |
| CCOc1ccc2nc(NCC(=O)OC(C)(C)C)nc(Nc3cc(C(F)(F)F)cc(C(F)(F)F)c3)c2c1 | Condition not met |
| Fc1ccc2ncnc(Nc3cc(C(F)(F)F)cc(C(F)(F)F)c3)c2c1 | Condition not met |

---

# assay.name: Cytotoxicity in human NCI-H460 cells infected with HCoV-OC43 treated for 72 hrs by CPE inhibition assay
# Format: toxicity, cell-based
# condition.set: read-out: TC50
log10(CC50 at 72 h): recorded values
property: log10(CC50 at 72 h) (log10 of the value in µM)

| structure.as.smiles | property | recorded.value |
| --- | --- | --- |
| NC(=O)c1ncn([C@@H]2O[C@H](CO)[C@@H](O)[C@H]2O)n1 | log10(CC50 at 72 h) | 2.61 |
| CCOc1ccc2nc(NCc3ccco3)nc(Nc3cc(C(F)(F)F)cc(C(F)(F)F)c3)c2c1 | log10(CC50 at 72 h) | 1.03 |
| CCOC(=O)c1ccc(Nc2ncnc3ccc(Cl)cc23)cc1 | log10(CC50 at 72 h) | 1.59 |
| Fc1ccc(Nc2ncnc3ccc(Cl)cc23)cc1 | log10(CC50 at 72 h) | 1.19 |
| COc1cc2c(Nc3cc(C(F)(F)F)cc(C(F)(F)F)c3)ncnc2cn1 | log10(CC50 at 72 h) | 0.84 |
| COc1ccc2ncnc(Sc3cc(C(F)(F)F)cc(C(F)(F)F)c3)c2c1 | log10(CC50 at 72 h) | 1.98 |
| FC(F)(F)c1cc(Nc2ncnc3cc(Cl)ccc23)cc(C(F)(F)F)c1 | log10(CC50 at 72 h) | 0.16 |
| CCOC(=O)c1ccc(Nc2ncnc3ccc(Cl)cc23)c(Cl)c1 | log10(CC50 at 72 h) | 1.51 |
| O=[N+]([O-])c1ccc(Nc2ncnc3ccc(Cl)cc23)cc1Cl | log10(CC50 at 72 h) | 1.35 |

---

# assay.name: Selectivity index, ratio of TC50 for human NCI-H460 cells infected with HCoV-OC43 to EC50 for HCoV-OC43 infected in human NCI-H460 cells
# Format: toxicity, cell-based
# condition.set: read-out: Selectivity Index
Response field class: enum, chosen by comparing selectivity ratio against small value = under 10, mid value = from 10 up to 20, large value = 20 and over

| structure.as.smiles | class.name |
| --- | --- |
| FC(F)(F)c1cc(Nc2ncnc3ccc(Cl)cc23)cc(C(F)(F)F)c1 | mid value |
| CCOc1ccc2nc(NCC(F)(F)F)nc(Nc3cc(C(F)(F)F)cc(C(F)(F)F)c3)c2c1 | mid value |
| Nc1ccc2ncnc(Nc3cc(C(F)(F)F)cc(C(F)(F)F)c3)c2c1 | large value |
| COc1ccc2ncnc(Nc3cc(F)cc(OC(F)(F)F)c3)c2c1 | large value |
| CCOc1ccc2nc(NCCN3CCN(C)CC3)nc(Nc3cc(C(F)(F)F)cc(C(F)(F)F)c3)c2c1 | mid value |
| CC(C)Oc1ccc2ncnc(Nc3cc(C(F)(F)F)cc(C(F)(F)F)c3)c2c1 | small value |
| CCCOc1ccc2ncnc(Nc3cc(C(F)(F)F)cc(C(F)(F)F)c3)c2c1 | large value |
| COc1ccc2ncnc(Nc3cc([N+](=O)[O-])cc(C(F)(F)F)c3)c2c1 | large value |
| NC(=O)c1ncn([C@@H]2O[C@H](CO)[C@@H](O)[C@H]2O)n1 | small value |
| COc1ccc2ncnc(Sc3cc(C(F)(F)F)cc(C(F)(F)F)c3)c2c1 | large value |
| FC(F)(F)c1cc(Nc2ncnc3ncccc23)cc(C(F)(F)F)c1 | small value |
| FC(F)(F)c1cc(Nc2ncnc3ccc(C(F)(F)F)cc23)cc(C(F)(F)F)c1 | mid value |
| FC(F)(F)c1cc(Nc2ncnc3cnc(Cl)cc23)cc(C(F)(F)F)c1 | mid value |
| FC(F)(F)c1cc(Nc2ncnc3cc(Cl)ccc23)cc(C(F)(F)F)c1 | small value |
| COc1ccc2ncnc(Nc3cc(Cl)cc(C#N)c3)c2c1 | large value |
| CCOc1ccc2nc(NCC(=O)OC(C)(C)C)nc(Nc3cc(C(F)(F)F)cc(C(F)(F)F)c3)c2c1 | small value |
| CCCNc1nc(Nc2cc(C(F)(F)F)cc(C(F)(F)F)c2)c2cc(OCC)ccc2n1 | small value |
| O=[N+]([O-])c1ccc2ncnc(Nc3cc(C(F)(F)F)cc(C(F)(F)F)c3)c2c1 | mid value |
| COC(=O)c1cc(Nc2ncnc3ccc(OC)cc23)cc(C(F)(F)F)c1 | large value |
| CCOc1ccc2ncnc(Nc3cc(C(F)(F)F)cc(C(F)(F)F)c3)c2c1 | large value |
